# tested-on: T1, 2G4P (artificial (RSM derived from human …))
# T1 chain: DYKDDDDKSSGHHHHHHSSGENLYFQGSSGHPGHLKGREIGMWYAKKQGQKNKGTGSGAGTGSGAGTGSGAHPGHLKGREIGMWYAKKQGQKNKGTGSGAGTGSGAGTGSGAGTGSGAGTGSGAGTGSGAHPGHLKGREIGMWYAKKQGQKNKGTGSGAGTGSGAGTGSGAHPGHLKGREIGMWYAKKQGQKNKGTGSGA
# assay-overview: smTIRFM (koff/kon); kon 0.0845e9 M-1 s-1, koff 0.29 s-1; EMSA: DNA annealed in 200 mM Tris pH 7.4, 100 mM KCl, 1 mM EDTA; binding 10 min at 25 C, native PAGE; smTIRFM: 100 pM tethered DNA, 100-5000 pM protein, buffer
# condition-summary: protein: recombinant; tags: N-terminal FLAG-6xHis; label: 3' biotin on strand 2; 18 bp duplex with 3' ssDNA tail folded as G4, mixed topology
pKd: −log10 of the molar value.
metric-name: pKd

[[record]]
binder = "hTelG4 (smTIRFM tethering) (mixed) DNA 1: TGGCGACGGCAGCGAGGCTTAGGGTTAGGGTTAGGGTTTAGGGTTAGGG DNA 2: GCCTCGCTGCCGTCGCCA"
metric_name = "pKd"
numeric_result = 8.47

